Each recorded value in this set is attributed to PubChem BioAssay (NCATS).

- ASSAY METHOD TEXT: Quantitative High-Throughput drug screen in 47 multiple myeloma cell lines against the NCATS MIPE library collection: Karpas417_ECACC cell viability assay (AID 1918961)
- TEST CONTEXT: Karpas417 myeloma viability, CellTiter-Glo ATP luminescence, 48 h
Results filed as inconclusive are left out. The source made the active and inactive calls. The call rests on the fitted dose curve; in most records, active means well fitted cell-killing curve with a large enough effect; inconclusive means small, poorly fitted or top-dose-only effect, or effect the other way; inactive means no such curve, though single readings can be large or run the other way.
Mark one answer only. Choices: active, inactive

Check out these entries, answers already filled in.
{"COMPOUND": "COc1cccc2c1C(=O)c1c(O)c3c(c(O)c1C2=O)C[C@@](O)(C(=O)CO)C[C@H]3O[C@H]1C[C@H](N)[C@H](O)[C@H](C)O1", "CATEGORY": "active"}
{"COMPOUND": "CC(=O)OC[C@@H]1O[C@@H](n2ccc(=O)[nH]c2=O)[C@H](OC(C)=O)[C@H]1OC(C)=O", "CATEGORY": "inactive"}
{"COMPOUND": "CC(C=CC1=C(C)CCCC1(C)C)=CC=CC(C)=CC(=O)Nc1ccc(O)cc1", "CATEGORY": "active"}
{"COMPOUND": "COc1cc2c(cc1O)CCC1C2CC[C@@]2(C)C1CC[C@@H]2O (stereo partly drawn)", "CATEGORY": "inactive"}

Query string: Entry "NC(=O)N1CCC(CC(=O)N2CCC([C@H]3c4ncc(Br)cc4CCc4cc(Cl)cc(Br)c43)CC2)CC1" : call = ?
Result string: active

Query string: Short answer needed: outcome of this test for "COc1cc(C)c(C=CC(C)=CC=CC(C)=CC(=O)O)c(C)c1C" ?
Result string: inactive

Query string: Which outcome was assigned to "CN(C)c1ccc(C(=O)NCCCCCCC(=O)NO)cc1" in this test?
Result string: active

Query string: Name the outcome recorded for "O=c1ccn([C@@H]2O[C@H](CO)[C@H](O)[C@@H]2F)c(=O)[nH]1" in the assay.
Result string: inactive

Query string: Given "O=C(O)c1ccc(Nc2ncc3c(n2)-c2ccc(Cl)cc2C(c2c(F)cccc2F)=NC3)cc1" , state the outcome it received in this test.
Result string: inactive

Query string: // return assay outcome for "CC(=O)[C@]1(O)Cc2c(O)c3c(c(O)c2[C@@H](O[C@H]2C[C@H](N)[C@@H](O)[C@H](C)O2)C1)C(=O)c1ccccc1C3=O"
Result string: active

Query string: Please share the test call associated with "CC(C)N1[N]C(=C2C=c3cc(O)ccc3=N2)c2c(N)ncnc21" .
Result string: active

Query string: Tell me the assay call for COc1ccc2c(c1OC)C(=O)OC2[C@H]1c2c(cc3c(c2OC)OCO3)CCN1C (stereo partly drawn) please.
Result string: active

Query string: For "C[C@@H](NCc1cc2ccccc2[nH]1)c1cccc2ccccc12" , what call appears in the results of this test?
Result string: inactive

* * *

Let's look at some molecules and their measured viability.
- ASSAY METHOD TEXT: Quantitative High-Throughput drug screen in 47 multiple myeloma cell lines against the NCATS MIPE library collection: SKMM1_PLB cell viability assay (AID 1919863); further: series mostly up to about 46 µM; nearly all actives have a fitted effect of over 35% in size
- TEST CONTEXT: SKMM1 myeloma viability, CellTiter-Glo ATP, 48 h; active compounds read low
Inconclusive results are not listed.
Express the result in % but write the number alone.

// worked examples, viability included
{"MOLECULE": "OCCN1C[C@H](O)[C@@H](O)[C@H](O)[C@@H]1CO", "UNIT ABBREVIATION": "%", "viability": 126}
{"MOLECULE": "C[C@@H]1CC[C@@]2(OC1)OC1CC3C4CC=C5CC(O)CCC5(C)C4CCC3(C)C1[C@@H]2C (some centres undefined)", "UNIT ABBREVIATION": "%", "viability": 155}
{"MOLECULE": "CON=C(C(=O)N[C@@H]1C(=O)N2C(C(=O)O)=C(Cn3ccc(=N)n3CCO)CS[C@H]12)c1csc(N)n1", "UNIT ABBREVIATION": "%", "viability": 112}
{"MOLECULE": "O=C1c2c(O)cccc2[C@@H]([C@@H]2O[C@H](CO)[C@@H](O)[C@H](O)[C@H]2O)c2cc(CO)cc(O)c21", "UNIT ABBREVIATION": "%", "viability": 153}
{"MOLECULE": "NC(=O)c1ncn([C@@H]2O[C@H](CO)[C@@H](O)[C@@H]2O)c1N", "UNIT ABBREVIATION": "%", "viability": 159}

Lookup result for "CC(C)(C)[C@H](NC(=O)c1ccc(N)c(Cl)c1)C(=O)N1CCC[C@@H]1C(=O)N[C@H](C#N)CC(=O)O" ; measured viability: 125
